measured.on: T1, mouse PAI-1 (mouse, UniProt P22777 24-401)
T1 sequence: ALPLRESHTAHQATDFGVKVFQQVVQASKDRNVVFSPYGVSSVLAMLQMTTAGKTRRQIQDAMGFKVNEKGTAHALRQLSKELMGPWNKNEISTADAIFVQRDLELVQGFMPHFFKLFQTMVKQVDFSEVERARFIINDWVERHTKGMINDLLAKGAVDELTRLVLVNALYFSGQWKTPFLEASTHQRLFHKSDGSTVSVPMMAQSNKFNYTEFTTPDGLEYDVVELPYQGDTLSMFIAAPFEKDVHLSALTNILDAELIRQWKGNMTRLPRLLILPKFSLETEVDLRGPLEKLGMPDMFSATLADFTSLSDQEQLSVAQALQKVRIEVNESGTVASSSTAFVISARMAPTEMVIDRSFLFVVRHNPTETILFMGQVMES
measurement.notes: cell-based or functional assay
recorded.metric: IC50 ratio mouse/human
Could you keep your reply to the number by itself?

Fill in the blank: the reported IC50 ratio mouse/human of Antibody 02, scFv (scFv, V domains shown) VH: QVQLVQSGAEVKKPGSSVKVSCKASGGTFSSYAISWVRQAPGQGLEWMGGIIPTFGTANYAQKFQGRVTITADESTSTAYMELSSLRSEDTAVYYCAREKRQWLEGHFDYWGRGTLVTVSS VL: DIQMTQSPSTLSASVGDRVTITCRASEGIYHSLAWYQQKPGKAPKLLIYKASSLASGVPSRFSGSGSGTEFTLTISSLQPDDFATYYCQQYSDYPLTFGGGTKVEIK is ____.
929

Hello, the source for this data is patent US20120114652A1, in case you need it.
